Kindly state residual activity for each of the entries shown.
- Tested target: BTK (human) (UniProt Q06187)
- Sequence (Q06187 whole entry, looked up): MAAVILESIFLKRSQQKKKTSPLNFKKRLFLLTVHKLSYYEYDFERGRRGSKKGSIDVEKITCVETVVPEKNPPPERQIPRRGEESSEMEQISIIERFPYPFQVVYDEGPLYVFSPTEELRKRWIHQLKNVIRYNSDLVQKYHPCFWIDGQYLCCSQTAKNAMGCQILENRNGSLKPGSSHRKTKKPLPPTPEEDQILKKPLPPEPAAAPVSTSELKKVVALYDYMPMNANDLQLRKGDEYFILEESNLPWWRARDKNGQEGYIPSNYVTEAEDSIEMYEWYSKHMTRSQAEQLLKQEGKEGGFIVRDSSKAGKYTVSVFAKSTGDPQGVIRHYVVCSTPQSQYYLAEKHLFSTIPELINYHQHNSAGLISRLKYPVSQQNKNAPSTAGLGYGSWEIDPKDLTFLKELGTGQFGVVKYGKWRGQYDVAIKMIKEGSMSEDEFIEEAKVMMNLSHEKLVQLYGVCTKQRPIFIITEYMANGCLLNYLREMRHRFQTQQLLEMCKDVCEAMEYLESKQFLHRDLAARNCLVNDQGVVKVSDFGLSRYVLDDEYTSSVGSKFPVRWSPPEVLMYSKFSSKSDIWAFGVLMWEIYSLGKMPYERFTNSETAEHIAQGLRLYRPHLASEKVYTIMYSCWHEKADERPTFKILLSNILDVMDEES
- Measurement notes: radiometric filter-binding kinase assay
- Applied conditions: compound 1.0 µM
Answers are plain numbers, in %.

Study these solved cases before continuing.
{"Compound": "O=C(O)c1cc(N=Nc2ccc(S(=O)(=O)Nc3ccccn3)cc2)ccc1O", "Readout unit": "%", "Recorded measurement": 97}
{"Compound": "CNC(=O)C1[C@H]2O[C@@](C)([C@@H]1N)n1c3ccccc3c3c4c(c5c6ccccc6n2c5c31)C(=O)NC4 (stereo not given in full)", "Readout unit": "%", "Recorded measurement": 9}
{"Compound": "O=C(Nc1nc2cc(C(F)(F)F)cc(NC3CC3)n2n1)c1cccnc1", "Readout unit": "%", "Recorded measurement": 101}
{"Compound": "NC(=O)c1cc(-c2ccnc(NC3CCCCC3)c2)nc(N2CCNCC2)c1", "Readout unit": "%", "Recorded measurement": 120}

Consider the additional compound presented here.
Input: What does the data say about its residual activity? Entry: `O=C(Nc1ccccc1-c1cn2c(CN3CCNCC3)csc2n1)c1cnc2ccccc2n1`
Output: 99

----------
- Tested target: SRC (human) (UniProt P12931)
- Sequence (P12931 whole entry, looked up): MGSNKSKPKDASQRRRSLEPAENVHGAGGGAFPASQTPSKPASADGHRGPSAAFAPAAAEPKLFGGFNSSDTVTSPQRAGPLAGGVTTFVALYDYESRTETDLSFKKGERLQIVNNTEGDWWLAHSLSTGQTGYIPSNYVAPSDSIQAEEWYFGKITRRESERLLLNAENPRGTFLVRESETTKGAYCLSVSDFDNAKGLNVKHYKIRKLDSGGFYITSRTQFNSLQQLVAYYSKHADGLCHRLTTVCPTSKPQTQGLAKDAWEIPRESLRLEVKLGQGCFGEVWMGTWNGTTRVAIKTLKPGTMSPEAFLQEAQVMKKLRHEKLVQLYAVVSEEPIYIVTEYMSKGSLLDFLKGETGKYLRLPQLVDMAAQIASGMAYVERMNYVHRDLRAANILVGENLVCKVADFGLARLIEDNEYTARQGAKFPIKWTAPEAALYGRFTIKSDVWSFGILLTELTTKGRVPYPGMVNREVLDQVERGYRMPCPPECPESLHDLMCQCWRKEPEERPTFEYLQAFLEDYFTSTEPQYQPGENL
- Measurement notes: radiometric filter-binding kinase assay
- Applied conditions: compound 1.0 µM
Kindly state residual activity for each of the entries shown.
Numbers only, in %.

{"Compound": "CNC(=O)C1[C@H]2O[C@@](C)([C@@H]1N)n1c3ccccc3c3c4c(c5c6ccccc6n2c5c31)C(=O)NC4 (stereo not given in full)", "residual activity (%)": 6}
{"Compound": "COc1cc(O)c2c(c1)[C@H]1OC1C[C@H](O)[C@H](O)C(=O)/C=C\\C[C@H](C)OC2=O (stereo not given in full)", "residual activity (%)": 86}
{"Compound": "O=C(O)c1cc(N=Nc2ccc(S(=O)(=O)Nc3ccccn3)cc2)ccc1O", "residual activity (%)": 94}

List the reported residual activity of each compound below.
1. COc1ccc2c(c1)c1c3c(c4c5ccccc5n(C)c4c1n2CC(O)CN(C)C)C(=O)NC3=O (stereo not given)
2. COc1cc(C(=O)N2CCOCC2)c(F)cc1Nc1ncc(C(F)(F)F)c(NC2CC2)n1
3. O=c1c(O)c(-c2ccc(O)c(O)c2)oc2cc(O)c(O)c(O)c12
4. O=C1NC(=S)N[C@@H]1Cc1c[nH]c2ccccc12
5. FC(F)(F)c1ccc(-c2ccc(Oc3cncc4sc(-c5nn[nH]n5)cc34)cc2)cc1
6. O=C(N[C@@H](COc1ccc2[nH]c(=O)[nH]c2c1)c1ccccc1)c1cccn(Cc2ccc(F)c(F)c2)c1=O
7. NC1(c2ccc(-c3nc4ccn5c(=O)[nH]nc5c4cc3-c3ccccc3)cc2)CCC1
8. Cc1nc(-c2ccc(OCC(C)C)c(C#N)c2)sc1C(=O)O

Output:
95
107
38
94
108
100
89
97

----------
Can you tell me residual activity for the items I'm about to list?
- Tested target: MAPK8 (human) (UniProt P45983)
- Sequence (P45983 whole entry, looked up): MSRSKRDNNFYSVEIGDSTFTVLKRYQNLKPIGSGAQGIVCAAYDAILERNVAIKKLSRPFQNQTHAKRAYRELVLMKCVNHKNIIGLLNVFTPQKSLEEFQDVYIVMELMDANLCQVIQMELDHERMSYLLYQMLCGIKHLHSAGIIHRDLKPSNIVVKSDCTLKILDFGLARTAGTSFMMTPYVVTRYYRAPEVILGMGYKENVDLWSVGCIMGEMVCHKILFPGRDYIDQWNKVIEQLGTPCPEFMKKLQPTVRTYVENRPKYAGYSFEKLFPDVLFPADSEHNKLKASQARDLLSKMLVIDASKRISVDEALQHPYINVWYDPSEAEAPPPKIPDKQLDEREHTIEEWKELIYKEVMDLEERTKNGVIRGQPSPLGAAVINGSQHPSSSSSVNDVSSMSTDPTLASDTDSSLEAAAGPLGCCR
- Measurement notes: radiometric filter-binding kinase assay
- Applied conditions: compound 1.0 µM
Numbers only, in %.

Past entries and their recorded results:
{"Molecule": "O=C(NCCCNc1nc(Nc2cccc(CN3CCOCC3)c2)ncc1C1CC1)C1CCC1", "Tested target": "MAPK8 (human) (UniProt P45983)", "Recorded measurement": 115}
{"Molecule": "NC(=O)Nc1ccc2c(c1)/C(=C/c1cc(-c3cccnc3)c[nH]1)C(=O)N2", "Tested target": "MAPK8 (human) (UniProt P45983)", "Recorded measurement": 99}
{"Molecule": "O=C(Nc1nc2cc(C(F)(F)F)cc(NC3CC3)n2n1)c1cccnc1", "Tested target": "MAPK8 (human) (UniProt P45983)", "Recorded measurement": 91}
{"Molecule": "CCNc1nc(Nc2cc(F)c(C(=O)N3CCOCC3)cc2OC)ncc1C(F)(F)F", "Tested target": "MAPK8 (human) (UniProt P45983)", "Recorded measurement": 87}
{"Molecule": "COc1cc(O)c2c(c1)[C@H]1OC1C[C@H](O)[C@H](O)C(=O)/C=C\\C[C@H](C)OC2=O (some centres undefined)", "Tested target": "MAPK8 (human) (UniProt P45983)", "Recorded measurement": 80}
{"Molecule": "Oc1ccc(/C=C/c2cc(O)cc(O)c2)cc1", "Tested target": "MAPK8 (human) (UniProt P45983)", "Recorded measurement": 96}
{"Molecule": "C=CC(=O)N1CCC[C@@H](n2nc(-c3ccc(Oc4ccccc4)cc3)c3c(N)ncnc32)C1", "Tested target": "MAPK8 (human) (UniProt P45983)", "Recorded measurement": 98}
{"Molecule": "Cc1ccc(-c2ccc3c(ccc4sc5c(c43)NC[C@@H](C)NC5=O)n2)cn1", "Tested target": "MAPK8 (human) (UniProt P45983)", "Recorded measurement": 93}

Input: # get_value(readout='residual activity', item= `CNc1nc(-c2ccc3c(N)n[nH]c3c2)cc(N2C[C@@H](C(=O)NC3CCCCC3)CC[C@H]2C)n1` )
Output: 94

These measurements were taken from the kinase profiling compilation of Christmann-Franck et al. (2016).
